# Test system: NCI-H522 lung
# assay name: NCI-60 one-dose screen, 48 h (100 = growth as untreated, 0 = no growth, -100 = all killed)
# test settings: 10 µM unless noted
This is part of a sample that, as a whole, favours compounds with a hit. Of some 83,000 tested, about 20% had one in any assay.
Our labelling divides records by growth into ranges: class 1 = under 20%, class 2 = from 20% up to 80%, class 3 = 80% and over

molecule | qualitative label
ClCCN(CCCl)c1nc(Cl)c(C2CC(c3ccccc3)=NN2c2ccccc2)s1 (configuration not stated) | class 2
CO[C@@H]([CH2][Hg][S]C#N)[C@@H]([CH2][Hg][S]C#N)OC | class 2
CC(C)C1c2ccc(O)cc2Oc2nc(N)c(C#N)c(N)c21 (configuration not stated) | class 3
CCCCCCCCCCCCOc1ccc(C(=O)Oc2ccc(CSP3(=O)OCC4OC(n5cnc6c(N)ncnc65)C(F)C4OP(=O)(O)OCC4OC(n5ccc(=O)[nH]c5=O)C(F)C4O3)cc2)cc1 (configuration not stated) | class 2
CC1=C(SCCC(=O)OCC(=O)NCCC[Te]c2ccccc2)C(=O)c2ccccc2C1=O | class 1
C[C@]12CC[C@H]3[C@@H](C[C@@H]4N=C(c5ccc(O)cc5)S[C@@]45C[C@H](O)CC[C@]35C)[C@@H]1CC[C@@H]2O | class 2
CN1CCN(C(=O)COc2ccc(/C=C3\CC4C5CC=C6CC(Cl)CCC6(C)C5CCC4(C)C3=O)cc2)CC1 (configuration not stated) | class 2
COc1cc(C2CC(=O)Nc3nc(N)[se]c32)c(OC)c2c1OCO2 (configuration not stated) | class 3

Quick check: band for CN(Cc1cccnc1)N=O
class 3

Any idea which band N#CC(C#N)=Cc1ccc2ccccc2c1 is in?
class 3

Each molecule maps to one class by growth. Which class for CCOc1cc(/C=N\Nc2nnc(C)n2N)c(C)cc1N(CCCl)CCCl ?
class 1

Class for CN1CC2CCC(C1)C2=O ?
class 3

Class label required: COc1ccc(OC)c(/C=C(/C)[N+](=O)[O-])c1
class 1

State the band of O=C1NC(=O)C(Cc2ccccc2)(Cc2ccccc2)C(=O)N1
class 3

* * *

# System: HL-60(TB) leukemia
# assay name: NCI-60 one-dose screen, 48 h (100 = growth as untreated, 0 = no growth, -100 = all killed)
# test settings: 10 µM unless noted
About 83,000 compounds went through this panel and 20% of them were active in at least one assay; those are over-represented in the sample as a whole.
Recorded growth values for a group of molecules are listed next.
Could you give me the number in %? Just the number is fine.

Worked examples follow.
molecule | value unit | quantitative readout
CCCCNCCc1ccccn1 | % | 99.1
CN(C)CCOc1cccc(NC2=C(Cl)C(=O)C(Nc3cccc(OCCN(C)C)c3)=C(Cl)C2=O)c1 | % | -51
CCCCCCCCCCCCCCCCCCOCC(COCCOCC[N+]1(CCCCCC(=O)[O-])CCCC1)Oc1ncccn1 (configuration not stated) | % | -32.2
O=S(=O)(NCCCNc1nccc(-c2c(-c3ccc(O)cc3)nc3sccn23)n1)c1ccc(F)cc1 | % | -32.3
Nc1nc(-c2cccc3ccccc23)cc2ccccc12 | % | -48.5

Returns the measured growth for the input molecule. Input: OC(CN1CCCC2CCCCC21)c1cc2ccccc2c2ccccc12 (configuration not stated)
84.9

Consider the molecule Cc1cc2ccccc2c2cc3ccccc3cc12 and give its measured growth.
49.4

Param item = Cc1ccc2oc(=O)cc(-c3cc(-c4cc5ccccc5oc4=O)nc(N)c3C#N)c2c1 ; retrieve measured growth.
93.5

Can you share its growth? I mean this molecule: CC(=O)Nc1cc2c3c(cccc3c1)-c1ccccc1-2
0.506

Which growth value is on record for CCN(CC)CCCC(C)Nc1ccc2cc(OC)ccc2n1 (configuration not stated) ?
126

Entry Cc1c(Cl)cc(-n2c(=O)c3ccccc3c3ccccc3c2=O)cc1Cl has what growth?
90.8

Which growth value is on record for N#Cc1c(NC(=O)NCc2ccccc2)sc2c1CCCC2 ?
-4.95

Would you mind telling me what growth value was observed for Nc1ccc(Nc2nccc(-c3ccc4ccccc4c3)n2)cc1 ?
21.2

Reported growth for CCN(CC)CCCC(C)Nc1cc(-c2ccc(C(F)(F)F)cc2)c(C#N)c2nc3ccccc3n12 (configuration not stated) : what is it?
-59.8

If you can, please state the reported growth value of CCN(CC)CCCC(C)Nc1c2ccc(Cl)cc2nc2cc(OC)c(OC)cc12 (configuration not stated) .
6.67

Record request: growth value, item Nc1cc(F)ccc1[N+](=O)[O-]
115

Could you share which growth value was measured for COc1ccc(-c2ccc(-c3ccc(C(=N)N)cn3)s2)cc1Cl ?
-55.3

Quick one: growth for Cn1cc(-c2[nH]c3cc(NC(=O)[C@H](N)C4CCCCC4)cc4c3c2C=NNC4=O)cn1 ?
-55.8

Tell me the measured growth of O=C(Nc1ccc2[nH]ncc2c1)c1csc(Nc2ccccc2)n1 , please.
9.35

Item O=C1OC(c2ccccc2)(c2ccccc2)c2ccsc21 has what recorded growth?
86.6

GET /values?readout=growth&item= Cc1cc(C(=O)Nc2ccc3cc(CN4CCOCC4)ccc3n2)c(C)n1-c1ccccc1
14.5

So what does the record say about growth for O=C(O)c1cccc(CN2CCN(c3cc4c(cc3F)c(=O)c(C(=O)O)cn4C3CC3)CC2)c1O ?
99.4

* * *

# System: DU-145 prostate
# assay name: NCI-60 one-dose screen, 48 h
# test settings: 10 µM unless noted
The panel holds about 83,000 compounds, 20% with a hit somewhere; the sample as a whole holds those more often. Active and inactive are the calls of the source. Rule for the calls: active = growth percent below 10; inactive = the rest.
Pick one and only one: active, inactive

Worked set:
compound | qualitative label
ClCCN(CCCl)c1nc(Cl)c(C2CC(c3ccc(Cl)cc3)=NN2c2cc(Cl)cc(Cl)c2)s1 (configuration not stated) | inactive
CCC[CH2][Sn]1([CH2]CCC)[O]C(=O)c2cccc([N+](=O)[O-])c2C(=O)[O]1 | active
CCOC(=O)c1cnc(SCc2ccc(Cl)c(Cl)c2)nc1N1CC1 | inactive
O=C(c1cccs1)C1NO[N+]([O-])=C1c1cccs1 (configuration not stated) | inactive

Outcome logged for O=C1c2ccccc2C(=O)N1[N+](=O)[O-] in this assay:
inactive

Called result for NS(=O)(=O)c1nc[nH]c1[N+](=O)[O-]
inactive

Assay outcome for COc1cc(CNCCc2ccc(Cl)cc2)cc(OC)c1O : what was it?
inactive

// outcome(item) with item = Cc1ccccc1O
inactive

Hi, sorry to bother you, what did the test record for NC(=O)NC(=O)CI ?
inactive

Status in this test for CC(C)(C)NCC(O)c1ccccc1Cl (configuration not stated) ?
active

Outcome logged for Cc1cc([N+](=O)[O-])c(Cl)cc1NS(=O)(=O)c1ccccc1 in this assay:
inactive

Per the assay record, what outcome was assigned to CC(C)CCC1(CCO)C(=O)NC(=S)NC1=O ?
inactive

* * *

# System: HL-60(TB) leukemia
# assay name: NCI-60 one-dose screen, 48 h
# test settings: 10 µM unless noted
Compounds without any hit were thinned out: in the full panel of roughly 83,000, 20% have a hit. Calls of active or inactive are those of the source. Rule for the calls: active = growth percent below 10; inactive = the rest.
# valid calls are YES (active), NO (inactive); nothing else

molecule | qualitative label
COC(=O)CC[C@@H](C)[C@H]1CC[C@H]2C3CC[C@@H]4C[C@@H]5CC[C@]4(C)[C@@]3(O5)[C@H](Br)[C@@H](Br)[C@]12C (some centres undefined) | NO
Nc1nc(N)c2cc(CNc3ccc(Cl)c(Cl)c3)ccc2n1 | YES
COc1ccc(C(=O)C(CN(C)C)c2ccccc2)cc1 (centres undefined) | YES

Hey, what did the test say about Cc1cc(C(C)(C)C)cc(C)c1CC1=NCCN1 ?
NO

What call does the record list for COc1ccc(/C=C\c2cc(OC)c(OC)c(OC)c2)cc1OC(=O)c1cccc(Cn2cc(CCOC(=O)c3cccc(Cn4nnc5c4C(=O)c4ccccc4C5=O)c3)nn2)c1 ?
YES

Field: outcome | Entry: Cc1ccc(S(=O)(=O)NC(CCC(=O)Nc2ccccc2)C(=O)Nc2ccccc2)cc1 (centres undefined)
YES

For COc1ccc(/C=N/Nc2cc(=O)[nH]c3ccc(Cl)cc23)cc1 , which call appears in the assay record?
NO

Please state the recorded outcome for this molecule: Cc1ccc(N(C(=O)CCc2c[nH]c3ccccc23)[C@H](C(=O)Nc2ccc(Cl)cc2)c2cccc([N+](=O)[O-])c2)cc1
NO

For O=C(/C=C/c1cccc(O)c1)c1cccc(-n2cc(-c3ccc4ccccc4c3)[nH]c2=O)c1 , what call appears in the results of this test?
YES

* * *

# Test system: HL-60(TB) leukemia
# assay name: NCI-60 one-dose screen, 48 h (100 = growth as untreated, 0 = no growth, -100 = all killed)
# test settings: 10 µM unless noted
About 83,000 compounds went through this panel and 20% of them were active in at least one assay; those are over-represented in the sample as a whole.
test readout: growth (%)
Numbers only here, please. The scale is %.

See these solved cases before continuing.
compound | quantitative readout
COC(=O)c1nc(-c2ccccc2)oc1S(=O)(=O)N1CCCC(C)C1 (stereo unspecified) | 15
Clc1cc2c(nn1)Nc1ccccc1S2 | 102
CCCCCCCC/C=C\CCCCCCCCOc1ccccc1CC(=O)NCC[N+]1(C)CCOCC1 | 67.2
CCN(CC)CCOc1ccc(C2=C(c3ccccc3)CCc3cc(OC)ccc32)cc1 | -54.4
Cc1ccc(S(=O)(=O)Nc2cccc3[nH]c(C(F)(F)F)nc23)cc1 | 0.648

Moving on to the next compound.
Quick check: growth of COc1cc(C2=NN(c3ccccc3)C(c3cccc(Nc4ccnc5cc(C(F)(F)F)ccc45)c3)C2)cc(OC)c1OC (stereo unspecified) ?
94.8
